# Experimental target: HLA-B*0702 (human)
# Assay summary: competition vs 125I probe peptide, purified HLA
# Run conditions: remark: other sources report otherwise
Endpoint name: IC50 (nM)

(I) PPSPREGPLPA [Her2/neu.1149]
(II) LPQHLFGYSI [CEA.58I10]
(III) IPWQRLLLTI [CEA.13I10]
Prompt: Ranking criterion: IC50, increasing numeric value. Items: as listed above. I'd appreciate it if you listed the labels in the requested order.
Response: I, III, II
(I: 12 nM, III: 39 nM, II: 212 nM)
